Every entry's value here was drawn from PubChem BioAssay (NCI).

Test system: U251 CNS
Test: NCI tumour cell line growth inhibition, 48 h
Each entry below carries its reported TGI.
Measured quantity: TGI

>>> recorded_value("CCOC(=O)Oc1c(OC)cc(C(=O)c2ccc(OC)c(OC(=O)CCl)c2OC)cc1OC")
"> 100 µM"
>>> recorded_value("Nc1nc(SCC(=O)O)[nH]c(=O)c1N")
"> 100 µM"
>>> recorded_value("CCCCn1c(C)c(C)c2c1NN=C(C#N)S2(=O)=O")
"> 100 µM"
>>> recorded_value("Cc1ccc(C)c(-n2c(-c3ccc(Br)cc3)csc2=NC(=O)c2ccccc2F)c1")
"> 100 µM"
>>> recorded_value("Brc1nc2c3ccccc3ncn2c1Br")
"> 100 µM"
>>> recorded_value("CC(C)C(=O)CC(Sc1ccc(N)cc1)c1ccccc1 (stereo unspecified)")
"32.9 µM"
